- system: GGTase-I (Rattus norvegicus, UniProt P53610+Q04631)
- Construct: purchased JENA BIOSCIENCE
- assay_procedure: In vitro GGTase-I enzyme assay (IC50, kinetics)
- Assay type: biochemical
- study_conditions: Tables 8-15; no unit printed there (Table 7 head: μM unless otherwise specified); read-out: In vitro (GGTase I IC50)
attribute_measured: IC50

Example entries begin here.
CC(C)(C)[C@@H]1C=C(C(=O)N[C@@H](Cc2ccccc2)C(N)=O)[C@H](c2ccc(Br)cc2)N1S(=O)(=O)c1ccccc1Cl [P61-B08] :: 6 µM
Cc1ccccc1S(=O)(=O)N1[C@@H](c2cccc(Cl)c2)C(C(=O)N[C@@H](CC(C)C)C(N)=O)=CC[C@H]1c1ccc(Cl)cc1 :: > 50 µM
Cc1ccccc1S(=O)(=O)N1[C@@H](c2ccc(Cl)cc2)C(C(=O)N[C@@H](CC(C)C)C(N)=O)=C[C@H]1C(C)(C)C [drawing 156] :: 8.1 µM
CC(C)(C)[C@@H]1C=C(C(=O)O)[C@H](c2ccc(Br)cc2)N1S(=O)(=O)c1ccccc1Cl :: 0.349 µM
NC(=O)[C@H](Cc1ccccc1)NC(=O)C1=CC[C@@H](c2cccc(Br)c2)N(S(=O)(=O)c2ccc(Cl)cc2)C1c1cccc(Cl)c1 (stereo partly shown) [P61-D04] :: 1.3 µM
Cc1ccccc1S(=O)(=O)N1C(c2cccc(Cl)c2)C(C(N)=O)=CC[C@H]1c1ccc(Cl)cc1 (stereo partly shown) :: > 20 µM
CC(C)C[C@H](NC(=O)C1=CC[C@@H](c2cccc(Cl)c2)N(S(=O)(=O)c2ccc(Br)cc2)[C@H]1c1cccc(Cl)c1)C(N)=O [drawing 209] :: > 20 µM
Cc1ccccc1S(=O)(=O)N1[C@@H](c2ccc(Cl)c(Cl)c2)C(C(=O)N[C@@H](Cc2ccccc2)C(N)=O)=C[C@H]1C(C)(C)C [P61-B10] :: 5.4 µM
CC(C)C[C@H](NC(=O)C1=CC[C@@H](c2cccc(Cl)c2)N(S(=O)(=O)c2ccc(Br)cc2)C1c1cccc(Br)c1)C(N)=O (stereo partly shown) :: > 50 µM
CC(C)(C)[C@@H]1C=C(C(=O)N[C@@H](Cc2ccccc2)C(N)=O)[C@H](c2ccc(Cl)c(Cl)c2)N1S(=O)(=O)c1c(Cl)cccc1Cl :: > 50 µM

query: Name the reported IC50 value associated with the molecule CC(C)(C)[C@@H]1C=C(C(=O)N[C@@H](Cc2ccccc2)C(N)=O)[C@H](c2ccc(Cl)c(Cl)c2)N1S(=O)(=O)C(C)(C)C [P61-D11]
result: > 50 µM

query: How about `COC(=O)[C@H](Cc1ccccc1)NC(=O)CCOCC1=C[C@@H](C(C)(C)C)N(S(=O)(=O)c2ccccc2C)[C@H]1c1ccc(Cl)cc1` ?
result: > 20 µM

query: How about `COC(=O)[C@H](Cc1ccccc1)NC(=O)C1=C[C@@H](C(C)(C)C)N(S(=O)(=O)c2ccccc2C)[C@H]1c1ccc(Cl)cc1` ?
result: > 50 µM
